# ASSAY OVERVIEW: Part 2 MAD: plasma pharmacokinetics, once daily for 10 days
# Assay type: in vivo, human
# STATED CONDITIONS: 3 mg
EXPERIMENTAL ENDPOINT: Accumulation ratio (Day 10/Day 1) Cmax
Reply: number alone, nothing else.

// recorded Accumulation ratio (Day 10/Day 1) Cmax for CS(=O)(=O)N[C@H]1CCCN2C(=O)COc3ccccc3C3CCC(CC3)OCC12 (stereo partly shown) : 1.68

====

# ASSAY OVERVIEW: Part 2 MAD: plasma pharmacokinetics, once daily for 10 days
# Assay type: in vivo, human
# STATED CONDITIONS: 25 mg
# Experimental: Part 2 of the study is a MAD evaluation in healthy subjects consisting of 4 cohorts: Cohorts 1-4 received powder-in-capsule or matching placebo. Dose levels were as follows: Blood samples (up to 5 mL per sample) were collected for PK analysis of Compound A and its metabolite(s). The actual time of sample collection was recorded. The PK samples of the subjects randomized to placebo treatment were not analyzed. […]
EXPERIMENTAL ENDPOINT: Accumulation ratio (Day 10/Day 1) AUC0-24
Reply: number alone, nothing else.

// recorded Accumulation ratio (Day 10/Day 1) AUC0-24 for CS(=O)(=O)N[C@H]1CCCN2C(=O)COc3ccccc3C3CCC(CC3)OCC12 (stereo partly shown) : 1.02
